# EXPERIMENTAL TARGET: T1, human SIRPα v5-Fc (SIRPα5 extracellular domain fused to human IGHG1_Fc) (human, UniProt P78324 31-373; P0DOX5 223-449 = IgG part)
# T1 construct: as m38; also called V5 (e.g. SIRPα5)
# MEASUREMENT DESCRIPTION: BLI Octet, antigen-Fc on biosensor;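 further: antigen captured on the biosensor tip and then immersed in solutions of the test antibodies, which act as the analyte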
READOUT KIND: kon (M⁻¹ s⁻¹)
Write the answer as a number in M⁻¹ s⁻¹, unit excluded.

Before answering, review these 3 worked examples.
# BINDER, kon / M⁻¹ s⁻¹
measured = [
    ("SIRPAB-9 (antibody, human IgG1, kappa, V domains shown) VH: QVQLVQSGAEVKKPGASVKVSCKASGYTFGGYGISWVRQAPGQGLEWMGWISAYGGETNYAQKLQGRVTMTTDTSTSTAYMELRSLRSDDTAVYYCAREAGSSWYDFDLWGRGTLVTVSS VL: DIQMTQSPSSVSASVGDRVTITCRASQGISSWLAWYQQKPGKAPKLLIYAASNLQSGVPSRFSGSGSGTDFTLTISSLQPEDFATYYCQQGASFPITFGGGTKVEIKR", 970000),
    ("SIRPAB-7 (antibody, human IgG1, kappa, V domains shown) VH: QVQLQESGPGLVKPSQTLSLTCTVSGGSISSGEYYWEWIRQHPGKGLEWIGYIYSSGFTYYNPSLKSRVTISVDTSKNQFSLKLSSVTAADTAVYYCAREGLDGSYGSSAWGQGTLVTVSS VL: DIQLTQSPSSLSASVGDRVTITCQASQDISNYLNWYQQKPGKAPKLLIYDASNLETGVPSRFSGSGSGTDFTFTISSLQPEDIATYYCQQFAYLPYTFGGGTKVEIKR", "2.17e+06"),
    ("SIRPAB-13 (antibody, human IgG1, kappa, V domains shown) VH: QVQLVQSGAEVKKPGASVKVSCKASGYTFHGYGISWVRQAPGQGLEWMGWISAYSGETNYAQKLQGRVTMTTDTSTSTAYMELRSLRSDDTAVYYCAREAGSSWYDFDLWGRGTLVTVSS VL: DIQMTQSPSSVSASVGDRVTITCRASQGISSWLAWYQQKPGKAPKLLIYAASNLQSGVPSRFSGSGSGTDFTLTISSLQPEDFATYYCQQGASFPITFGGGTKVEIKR", "1.16e+06"),
]

// returns reported kon for input SIRPAB-10 (antibody, human IgG1, kappa, V domains shown) VH: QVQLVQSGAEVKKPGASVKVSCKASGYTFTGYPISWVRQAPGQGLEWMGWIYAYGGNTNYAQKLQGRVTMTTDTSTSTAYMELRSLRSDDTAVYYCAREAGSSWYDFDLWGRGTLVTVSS VL: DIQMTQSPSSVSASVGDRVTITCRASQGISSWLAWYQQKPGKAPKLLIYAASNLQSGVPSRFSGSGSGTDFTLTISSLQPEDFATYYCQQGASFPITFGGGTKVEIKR
1.13e+06
